Hello, the source for this data is paper PMC6386705, in case you need it.

Biological target: HuR RRM3 (human, UniProt Q15717 241-326)
Sequence (Q15717 241-326): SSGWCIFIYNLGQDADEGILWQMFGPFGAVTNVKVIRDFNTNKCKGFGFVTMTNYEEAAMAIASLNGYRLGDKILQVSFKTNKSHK
Test: ITC
outcome-measure: Kd (µM)

INSERT INTO results (binder, unit_name, recorded_value) VALUES
  ('UUUUUU (ssRNA)', 'µM', 3.58);
